Catalogue of remaining activity at 10 µM readings, one per entry.
Target: YES/YES1 (Homo sapiens, UniProt P07947)
Construct: purchased Reaction Biology (HotSpot contract assay)
Sequence (P07947 whole entry): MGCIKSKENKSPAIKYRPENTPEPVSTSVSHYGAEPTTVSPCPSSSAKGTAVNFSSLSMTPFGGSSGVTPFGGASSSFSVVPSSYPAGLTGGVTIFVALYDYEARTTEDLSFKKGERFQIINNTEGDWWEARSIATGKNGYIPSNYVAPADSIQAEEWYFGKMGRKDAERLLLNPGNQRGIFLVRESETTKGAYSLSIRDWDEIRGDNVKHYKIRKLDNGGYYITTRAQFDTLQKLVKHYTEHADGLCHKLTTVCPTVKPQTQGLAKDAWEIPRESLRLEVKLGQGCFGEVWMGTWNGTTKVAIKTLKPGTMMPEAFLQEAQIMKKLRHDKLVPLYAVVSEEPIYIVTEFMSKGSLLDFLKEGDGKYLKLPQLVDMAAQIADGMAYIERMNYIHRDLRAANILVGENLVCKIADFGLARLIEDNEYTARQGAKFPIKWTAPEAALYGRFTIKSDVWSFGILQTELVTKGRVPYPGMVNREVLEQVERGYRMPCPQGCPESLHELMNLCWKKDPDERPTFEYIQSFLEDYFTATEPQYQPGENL
Assay: HotSpot in vitro kinase radiometric assay
Type: biochemical
Details: YES/YES1; 10uM; ATP 50 uM; Data 1, Data 2; read-out: % Enzyme Activity (relative to DMSO controls)
quantity-measured: remaining activity at 10 µM (%)

{"molecule": "CCc1cc(-c2[nH]nc(C)c2-c2ccc3c(c2)OCCO3)c(O)cc1O [CCT018159]", "target-under-test": "YES/YES1 (Homo sapiens, UniProt P07947)", "value-measured": 92}
{"molecule": "CC(C)c1cc(C(=O)N2Cc3ccc(CN4CCN(C)CC4)cc3C2)c(O)cc1O [Onalespib]", "target-under-test": "YES/YES1 (Homo sapiens, UniProt P07947)", "value-measured": 99.6}
{"molecule": "CCNC(=O)c1noc(-c2cc(Cl)c(O)cc2O)c1-c1ccc(OC)cc1 [VER-50589]", "target-under-test": "YES/YES1 (Homo sapiens, UniProt P07947)", "value-measured": 102}
{"molecule": "C[C@@H]1C[C@H]2O[C@@H]2/C=C\\C=C\\C(=O)Cc2c(Cl)c(O)cc(O)c2C(=O)O1 [Radicicol]", "target-under-test": "YES/YES1 (Homo sapiens, UniProt P07947)", "value-measured": 103}
{"molecule": "COC1=C2C[C@@H](C)C[C@H](OC)[C@H](O)[C@@H](C)/C=C(\\C)[C@H](OC(N)=O)[C@@H](OC)/C=C\\C=C(/C)C(=O)NC(=CC1=O)C2=O [Geldanamycin]", "target-under-test": "YES/YES1 (Homo sapiens, UniProt P07947)", "value-measured": 103}

###

Tested on: 382 unique human kinases
Experiment: biochemical
Assay type: biochemical
Conditions: cutoff of >85% inhibition at 10 μM; luminespib and ganetespib large kinome panel, others 16-kinase panel
quantity-measured: number of off-target kinases experimentally identified, In vitro binding (KinomeSCAN)

{"query-smiles": "CN(C)c1cc2c(cc1Sc1nc3c(N)nccc3n1CCNCC(C)(C)C)OCO2", "value-measured": 0}
{"query-smiles": "CCNC(=O)c1noc(-c2cc(C(C)C)c(O)cc2O)c1-c1ccc(CN2CCOCC2)cc1", "value-measured": 2}
{"query-smiles": "CC1(C)CC(=O)c2c(C(F)(F)F)nn(-c3ccc(C(N)=O)c(N[C@H]4CC[C@H](O)CC4)c3)c2C1", "value-measured": 0}
{"query-smiles": "CC(C)c1cc(-c2n[nH]c(=O)n2-c2ccc3c(ccn3C)c2)c(O)cc1O", "value-measured": 21}
{"query-smiles": "COc1c(C)cnc(Cn2cnc3c(Cl)nc(N)nc32)c1C", "value-measured": 0}
{"query-smiles": "CC(C)c1cc(C(=O)N2Cc3ccc(CN4CCN(C)CC4)cc3C2)c(O)cc1O", "value-measured": 0}

###

Target: 382 unique human kinases (Homo sapiens)
pIC50: −log10 of the molar value.

{"query-smiles": "c1ccc2c(-c3cnn4cc(-c5ccc(N6CCNCC6)cc5)cnc34)ccnc2c1", "target-under-test": "382 unique human kinases (Homo sapiens)", "pIC50": 6.78}

###

Target: TRKA-TFG (TRK-T3) (Homo sapiens, UniProt P04629+Q92734)
Construct: purchased Reaction Biology (HotSpot contract assay)
Sequence (Q92734+P04629 fused): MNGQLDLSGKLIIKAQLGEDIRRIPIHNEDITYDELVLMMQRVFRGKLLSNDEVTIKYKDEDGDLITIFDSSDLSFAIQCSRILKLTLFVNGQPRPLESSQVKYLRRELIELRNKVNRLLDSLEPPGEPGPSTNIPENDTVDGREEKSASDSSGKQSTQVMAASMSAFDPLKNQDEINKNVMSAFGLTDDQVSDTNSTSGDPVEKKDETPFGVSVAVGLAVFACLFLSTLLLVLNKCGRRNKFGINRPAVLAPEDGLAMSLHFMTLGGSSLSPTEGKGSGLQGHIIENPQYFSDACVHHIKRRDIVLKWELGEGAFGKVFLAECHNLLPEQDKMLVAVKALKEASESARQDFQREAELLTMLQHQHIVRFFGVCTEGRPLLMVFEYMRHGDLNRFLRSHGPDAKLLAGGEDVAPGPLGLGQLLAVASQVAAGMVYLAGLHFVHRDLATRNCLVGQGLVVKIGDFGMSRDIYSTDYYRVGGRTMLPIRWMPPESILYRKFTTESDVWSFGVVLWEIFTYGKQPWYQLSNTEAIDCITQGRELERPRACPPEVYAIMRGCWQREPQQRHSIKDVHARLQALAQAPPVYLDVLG
Experiment: HotSpot in vitro kinase radiometric assay
Assay type: biochemical
Details: radiometric 10-point concentration-response, n = 3; read-out: in vitro biochemical IC50, TRKA-TFG
Entries and their IC50

{"molecule": "CC(C)c1cc(-c2n[nH]c(=O)n2-c2ccc3c(ccn3C)c2)c(O)cc1O [Ganetespib]", "target-under-test": "TRKA-TFG (TRK-T3) (Homo sapiens, UniProt P04629+Q92734)", "sign": "=", "IC50 / µM": 0.329}
{"molecule": "CCNC(=O)c1noc(-c2cc(C(C)C)c(O)cc2O)c1-c1ccc(CN2CCOCC2)cc1 [Luminespib]", "target-under-test": "TRKA-TFG (TRK-T3) (Homo sapiens, UniProt P04629+Q92734)", "sign": ">", "IC50 / µM": 10}

###

Molecular target: 382 unique human kinases (Homo sapiens, UniProt Q9HC98)
Sequence (Q9HC98 whole entry): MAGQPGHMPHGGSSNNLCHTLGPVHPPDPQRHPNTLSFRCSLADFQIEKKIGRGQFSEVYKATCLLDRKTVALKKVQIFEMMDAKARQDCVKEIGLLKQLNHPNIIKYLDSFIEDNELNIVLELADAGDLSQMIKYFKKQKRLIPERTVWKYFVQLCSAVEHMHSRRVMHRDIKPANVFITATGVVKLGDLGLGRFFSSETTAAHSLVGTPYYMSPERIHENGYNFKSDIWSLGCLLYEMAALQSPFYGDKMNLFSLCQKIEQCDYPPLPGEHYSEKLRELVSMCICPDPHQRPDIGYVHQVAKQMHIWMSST
pIC50: −log10 of the molar value.
quantity-measured: pIC50

{"compound": "O=C1Nc2ccc3ncsc3c2/C1=C/c1cnc[nH]1 [PKR Inhibitor]", "value-measured": 4.45}

###

Molecular target: 382 unique human kinases (Homo sapiens)

{"query-smiles": "Oc1ccc(-c2nc(-c3ccncc3)c(-c3ccc(F)cc3)[nH]2)cc1", "IC50 (µM)": 9.41}

###

Molecular target: FYN (Homo sapiens)
Construct: purchased Reaction Biology (HotSpot contract assay)
Sequence (P06241 whole entry): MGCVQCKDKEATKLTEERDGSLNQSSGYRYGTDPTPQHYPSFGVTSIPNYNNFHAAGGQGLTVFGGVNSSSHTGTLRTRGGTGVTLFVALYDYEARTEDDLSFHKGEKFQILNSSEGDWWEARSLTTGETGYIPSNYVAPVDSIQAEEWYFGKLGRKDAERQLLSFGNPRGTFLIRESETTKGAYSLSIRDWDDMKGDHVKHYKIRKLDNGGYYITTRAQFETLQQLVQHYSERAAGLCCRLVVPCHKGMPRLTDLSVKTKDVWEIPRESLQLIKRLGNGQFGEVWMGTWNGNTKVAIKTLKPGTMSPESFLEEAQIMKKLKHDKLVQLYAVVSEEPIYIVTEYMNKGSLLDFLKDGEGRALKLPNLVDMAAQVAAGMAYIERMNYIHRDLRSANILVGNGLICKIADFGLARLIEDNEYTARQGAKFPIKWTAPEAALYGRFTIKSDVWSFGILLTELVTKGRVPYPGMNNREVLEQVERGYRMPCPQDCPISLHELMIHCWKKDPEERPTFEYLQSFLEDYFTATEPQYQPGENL
Assay: HotSpot in vitro kinase radiometric assay
Assay type: biochemical
Conditions: FYN; 10uM; ATP 30 uM; Data 1, Data 2; read-out: % Enzyme Activity (relative to DMSO controls)
quantity-measured: remaining activity at 10 µM (%)

{"query-smiles": "CCc1cc(-c2[nH]nc(C)c2-c2ccc3c(c2)OCCO3)c(O)cc1O", "quantity-measured": "remaining activity at 10 µM", "unit-info": "%", "value-measured": 31.4}
{"query-smiles": "C[C@@H]1C[C@H]2O[C@@H]2/C=C\\C=C\\C(=O)Cc2c(Cl)c(O)cc(O)c2C(=O)O1", "quantity-measured": "remaining activity at 10 µM", "unit-info": "%", "value-measured": 110}
{"query-smiles": "COC1=C2C[C@@H](C)C[C@H](OC)[C@H](O)[C@@H](C)/C=C(\\C)[C@H](OC(N)=O)[C@@H](OC)/C=C\\C=C(/C)C(=O)NC(=CC1=O)C2=O", "quantity-measured": "remaining activity at 10 µM", "unit-info": "%", "value-measured": 121}
{"query-smiles": "CCNC(=O)c1noc(-c2cc(Cl)c(O)cc2O)c1-c1ccc(OC)cc1", "quantity-measured": "remaining activity at 10 µM", "unit-info": "%", "value-measured": 109}
{"query-smiles": "CC(C)c1cc(C(=O)N2Cc3ccc(CN4CCN(C)CC4)cc3C2)c(O)cc1O", "quantity-measured": "remaining activity at 10 µM", "unit-info": "%", "value-measured": 108}

###

Molecular target: UniProt Q15119
quantity-measured: IC50 (µM)

{"query-smiles": "O=C1Nc2ccc(I)cc2/C1=C/c1cc(Br)c(O)c(Br)c1", "quantity-measured": "IC50", "value-measured": 6.61}

###

Target: 382 unique human kinases (Homo sapiens, UniProt Q15118)
Sequence (Q15118 29-436): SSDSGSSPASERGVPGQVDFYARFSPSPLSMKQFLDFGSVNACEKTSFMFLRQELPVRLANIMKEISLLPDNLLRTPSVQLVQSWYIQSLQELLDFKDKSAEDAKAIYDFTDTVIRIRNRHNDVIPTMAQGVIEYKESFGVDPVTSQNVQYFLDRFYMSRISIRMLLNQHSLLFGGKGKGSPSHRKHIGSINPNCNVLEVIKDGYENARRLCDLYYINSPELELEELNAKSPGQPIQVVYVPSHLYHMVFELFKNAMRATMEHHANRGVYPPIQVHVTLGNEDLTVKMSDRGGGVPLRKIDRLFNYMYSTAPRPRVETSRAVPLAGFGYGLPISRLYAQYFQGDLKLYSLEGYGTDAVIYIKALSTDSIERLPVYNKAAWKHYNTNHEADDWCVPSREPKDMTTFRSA

{"query-smiles": "O=C1Nc2ccc(I)cc2/C1=C/c1cc(Br)c(O)c(Br)c1", "unit-info": "µM", "IC50": 32.2}

###

Target: TRKA (Homo sapiens, UniProt P04629)
Construct: purchased Reaction Biology (HotSpot contract assay)
Sequence (P04629 33-796): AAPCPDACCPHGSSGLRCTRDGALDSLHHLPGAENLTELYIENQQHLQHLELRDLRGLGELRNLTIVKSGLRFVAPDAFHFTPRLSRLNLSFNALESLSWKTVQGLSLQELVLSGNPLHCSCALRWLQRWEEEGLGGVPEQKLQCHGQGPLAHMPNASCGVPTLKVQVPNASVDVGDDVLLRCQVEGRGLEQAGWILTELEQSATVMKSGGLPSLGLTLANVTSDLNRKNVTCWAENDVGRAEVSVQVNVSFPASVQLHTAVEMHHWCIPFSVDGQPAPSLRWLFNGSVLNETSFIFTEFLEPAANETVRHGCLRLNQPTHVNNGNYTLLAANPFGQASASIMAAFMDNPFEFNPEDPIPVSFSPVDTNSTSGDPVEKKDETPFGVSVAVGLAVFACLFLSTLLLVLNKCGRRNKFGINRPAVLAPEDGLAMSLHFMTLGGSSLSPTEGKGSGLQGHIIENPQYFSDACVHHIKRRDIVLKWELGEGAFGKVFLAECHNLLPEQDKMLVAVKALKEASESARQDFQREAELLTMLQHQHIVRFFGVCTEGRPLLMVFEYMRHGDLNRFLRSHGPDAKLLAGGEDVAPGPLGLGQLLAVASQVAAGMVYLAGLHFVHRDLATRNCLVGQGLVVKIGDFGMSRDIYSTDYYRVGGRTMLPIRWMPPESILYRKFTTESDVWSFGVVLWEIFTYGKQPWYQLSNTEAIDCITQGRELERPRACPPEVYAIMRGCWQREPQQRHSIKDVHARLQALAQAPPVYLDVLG
Assay: HotSpot in vitro kinase radiometric assay
Assay type: biochemical
Details: TRKA; 10uM; ATP 100 uM; Data 1, Data 2; read-out: % Enzyme Activity (relative to DMSO controls)
Recorded measurements of remaining activity at 10 µM, one per entry
quantity-measured: remaining activity at 10 µM (%)

{"query-smiles": "COC1=C2C[C@@H](C)C[C@H](OC)[C@H](O)[C@@H](C)/C=C(\\C)[C@H](OC(N)=O)[C@@H](OC)/C=C\\C=C(/C)C(=O)NC(=CC1=O)C2=O", "quantity-measured": "remaining activity at 10 µM", "value-measured": 104}
{"query-smiles": "C[C@@H]1C[C@H]2O[C@@H]2/C=C\\C=C\\C(=O)Cc2c(Cl)c(O)cc(O)c2C(=O)O1", "quantity-measured": "remaining activity at 10 µM", "value-measured": 106}
{"query-smiles": "CCNC(=O)c1noc(-c2cc(Cl)c(O)cc2O)c1-c1ccc(OC)cc1", "quantity-measured": "remaining activity at 10 µM", "value-measured": 100}
{"query-smiles": "CC(C)c1cc(C(=O)N2Cc3ccc(CN4CCN(C)CC4)cc3C2)c(O)cc1O", "quantity-measured": "remaining activity at 10 µM", "value-measured": 105}
{"query-smiles": "CCc1cc(-c2[nH]nc(C)c2-c2ccc3c(c2)OCCO3)c(O)cc1O", "quantity-measured": "remaining activity at 10 µM", "value-measured": 34.6}

###

Target: c-Src (Homo sapiens, UniProt P12931)
Construct: purchased Reaction Biology (HotSpot contract assay)
Sequence (P12931 whole entry): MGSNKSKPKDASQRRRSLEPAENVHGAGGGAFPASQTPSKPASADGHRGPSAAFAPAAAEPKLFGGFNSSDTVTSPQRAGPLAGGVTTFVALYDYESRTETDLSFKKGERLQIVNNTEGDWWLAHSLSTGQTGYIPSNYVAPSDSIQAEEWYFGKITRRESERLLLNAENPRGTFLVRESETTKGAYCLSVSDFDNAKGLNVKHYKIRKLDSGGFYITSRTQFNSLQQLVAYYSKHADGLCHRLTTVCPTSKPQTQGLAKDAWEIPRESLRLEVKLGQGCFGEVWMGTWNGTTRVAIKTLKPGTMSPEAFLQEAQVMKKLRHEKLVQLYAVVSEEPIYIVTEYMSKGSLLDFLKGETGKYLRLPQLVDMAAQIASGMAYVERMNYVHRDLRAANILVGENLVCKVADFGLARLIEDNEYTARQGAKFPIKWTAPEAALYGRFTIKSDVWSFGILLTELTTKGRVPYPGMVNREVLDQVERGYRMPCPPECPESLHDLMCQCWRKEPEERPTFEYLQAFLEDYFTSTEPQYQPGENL
Assay: HotSpot in vitro kinase radiometric assay
Assay type: biochemical
Conditions: c-Src; 10uM; ATP 15 uM; Data 1, Data 2; read-out: % Enzyme Activity (relative to DMSO controls)

{"molecule": "C[C@@H]1C[C@H]2O[C@@H]2/C=C\\C=C\\C(=O)Cc2c(Cl)c(O)cc(O)c2C(=O)O1 [Radicicol]", "remaining activity at 10 µM": "96.8%"}
{"molecule": "CCc1cc(-c2[nH]nc(C)c2-c2ccc3c(c2)OCCO3)c(O)cc1O [CCT018159]", "remaining activity at 10 µM": "86.2%"}
{"molecule": "CC(C)c1cc(C(=O)N2Cc3ccc(CN4CCN(C)CC4)cc3C2)c(O)cc1O [Onalespib]", "remaining activity at 10 µM": "98.7%"}
{"molecule": "COC1=C2C[C@@H](C)C[C@H](OC)[C@H](O)[C@@H](C)/C=C(\\C)[C@H](OC(N)=O)[C@@H](OC)/C=C\\C=C(/C)C(=O)NC(=CC1=O)C2=O [Geldanamycin]", "remaining activity at 10 µM": "110%"}
